System: BXPC-3
RUN_DESCRIPTION: Cytotoxicity against human BxPC3 cells assessed as reduction in cell viability incubated for 72 hrs by MTT assay
Type: functional, cell-based
CONDITION_CONTEXT: BXPC-3, 72 h
Listed next: entries and their corresponding pIC50.
Convention used: pIC50 is expressed as -log10 of the molar concentration.

// below: answered molecules
# COMPOUND_STRUCTURE_STRING, TEST_TARGET, OUTCOME_MEASURE, MEASURED_NUMBER
records = [
    ("Cc1ccc(/C=c2\\[nH]c(=O)/c(=C/c3cccc(C(=O)c4ccc(F)cc4)c3)[nH]c2=O)o1", "BXPC-3", "pIC50", 8.43),
    ("O=C(c1ccc(F)cc1)c1cccc(/C=c2\\[nH]c(=O)/c(=C/c3c[nH]cn3)[nH]c2=O)c1", "BXPC-3", "pIC50", 8.37),
    ("CC(C)(C)c1[nH]cnc1/C=c1\\[nH]c(=O)/c(=C/c2cccc(Oc3ccc(F)cc3)c2)[nH]c1=O", "BXPC-3", "pIC50", 8.49),
]

For reference, reported pIC50 for COCc1ccc(/C=c2\[nH]c(=O)/c(=C/c3cccc(C(=O)c4ccc(F)cc4)c3)[nH]c2=O)o1 stands at 8.70

Entry O=C(c1ccc(F)cc1)c1cccc(/C=c2\[nH]c(=O)/c(=C/c3nc[nH]c3C3CC3)[nH]c2=O)c1 — recorded pIC50 = 8.85

For reference, reported pIC50 for CC(C)c1[nH]cnc1/C=c1\[nH]c(=O)/c(=C/c2cccc(Oc3ccc(F)cc3)c2)[nH]c1=O stands at 8.47

response.value for O=c1[nH]/c(=C\c2nc[nH]c2C2CC2)c(=O)[nH]/c1=C\c1cccc(Oc2ccc(F)cc2)c1 (field: pIC50) = 8.03

Input COCc1ccc(/C=c2\[nH]c(=O)/c(=C/c3cccc(Oc4ccc(F)cc4)c3)[nH]c2=O)o1 . Output pIC50: 8.18

----------
System: BXPC-3
RUN_DESCRIPTION: Cytotoxicity against human BxPC3 cells assessed as reduction in cell viability incubated for 72 hrs by MTT assay
Format: functional, cell-based
CONDITION_CONTEXT: BXPC-3, 72 h
Reported IC50 values are given for each entry in this list.

Field: example entries. Status: answers known.
# MOLECULE, TEST_TARGET, RESULT
data = [
    ("CC(C)c1[nH]cnc1/C=c1\\[nH]c(=O)/c(=C/c2cccc(C(=O)c3ccc(F)cc3)c2)[nH]c1=O", "BXPC-3", "0.6 nM"),
    ("CC(C)(C)c1[nH]cnc1/C=c1\\[nH]c(=O)/c(=C/c2ccccc2)[nH]c1=O [PLINABULIN]", "BXPC-3", "5.8 nM"),
]

Shifting focus to the molecule that follows.
BXPC-3 IC50 of CC(C)(C)c1[nH]cnc1/C=c1\[nH]c(=O)/c(=C/c2cccc(C(=O)c3ccc(F)cc3)c2)[nH]c1=O is 0.6 nM
